System: p53 mutant WTK-1 cells
Assay: MTT cell growth assay, p53 mutant WTK-1 cells
Format: cell-based, human
Conditions: 72 h
Measured Attribute: IC50 (µM)
Answers are plain numbers, in µM.

### Prompt # value lookup — system p53 mutant WTK-1 cells, readout IC50, item Cc1occc(=O)c1[O-].Cc1occc(=O)c1[O-].Cc1occc(=O)c1[O-].[Ga+3] [GaM, gallium maltolate]
### Response 45

###

Test system: MCL cell lines HBL2, JVM2, Z138C, and Granta
Assay: MTT cell growth assay, mantle cell lymphoma (MCL) cell lines
Assay type: cell-based, human
Details: range over the four cell lines, 72 h, read-out: IC50, growth inhibition of MCL cell lines HBL2, JVM2, Z138C, and Granta
Measured Attribute: IC50

Cc1occc(=O)c1[O-].Cc1occc(=O)c1[O-].Cc1occc(=O)c1[O-].[Ga+3] [GaM, gallium maltolate] = 15 to 30 µM

From here, focus on the item given below.
### Prompt Given the entry O=[N+]([O-])[O-].O=[N+]([O-])[O-].O=[N+]([O-])[O-].[Ga+3] [GaN, gallium nitrate, reference compound] , report its measured IC50.
### Response 45 to 400 µM
